method: Inhibition of Burkholderia pseudomallei beta carbonic anhydrase preincubated with enzyme for 15 mins by phenol red-based stopped-flow CO2 hydration assay
pKi: −log10 of the molar value.
Known pKi of a selection of compounds
attribute-measured: pKi

chemical_smiles=NS(=O)(=O)c1ccc(CCN2CN(Cc3c(F)cccc3F)CCS2(=O)=O)cc1 readout_number=6.41
chemical_smiles=NS(=O)(=O)c1ccc(N2CN(Cc3c(F)c(F)c(F)c(F)c3F)CCS2(=O)=O)cc1 readout_number=7.09
chemical_smiles=NS(=O)(=O)c1ccc(N2CN(Cc3cccc(Cl)c3)CCS2(=O)=O)cc1 readout_number=6.38
